biological target: human β1 adrenergic receptor (Homo sapiens, UniProt P08588); experiment: Human β1 adrenergic receptor agonist activity, cAMP increase in transfected CHO cells; format: cell-based; conditions: cAMP in CHO cells; selected compounds; read-out: β1: EC50
Sequence (P08588 whole entry): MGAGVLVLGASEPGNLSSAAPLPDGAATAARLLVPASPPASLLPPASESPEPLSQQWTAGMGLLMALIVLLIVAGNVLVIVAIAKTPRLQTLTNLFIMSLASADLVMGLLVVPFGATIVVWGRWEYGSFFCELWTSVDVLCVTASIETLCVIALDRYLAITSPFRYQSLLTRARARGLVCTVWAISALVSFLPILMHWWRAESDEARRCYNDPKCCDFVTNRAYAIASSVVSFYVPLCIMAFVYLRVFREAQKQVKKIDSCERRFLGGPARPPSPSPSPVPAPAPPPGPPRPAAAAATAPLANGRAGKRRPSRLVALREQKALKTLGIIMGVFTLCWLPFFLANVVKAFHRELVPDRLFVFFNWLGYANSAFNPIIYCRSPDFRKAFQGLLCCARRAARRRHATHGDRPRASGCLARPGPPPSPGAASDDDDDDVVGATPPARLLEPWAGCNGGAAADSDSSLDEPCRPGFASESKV
# reported EC50; entries follow

- compound: "CC(Cc1ccc2c(c1)OC(C(=O)OCCC(C)(C)C)(C(=O)OCCC(C)(C)C)O2)NCC(O)c1cccc(Cl)c1 (centres unmarked)"
  test_target: "human β1 adrenergic receptor (Homo sapiens, UniProt P08588)"
  EC50 (µM): 5.9
- compound: "C[C@H](Cc1ccc2c(c1)OC(C(=O)OCC(C)(C)C)(C(=O)OCC(C)(C)C)O2)NC[C@H](O)c1cccc(Cl)c1"
  test_target: "human β1 adrenergic receptor (Homo sapiens, UniProt P08588)"
  EC50 (µM): 5
- compound: "CC(Cc1ccc2c(c1)OC(C(=O)OCC1CCC1)(C(=O)OCC1CCC1)O2)NCC(O)c1cccc(Cl)c1 (centres unmarked)"
  test_target: "human β1 adrenergic receptor (Homo sapiens, UniProt P08588)"
  EC50 (µM): 8.4
- compound: "C[C@H](Cc1ccc2c(c1)OC(C(=O)O)(C(=O)OCCC(C)(C)C)O2)NC[C@H](O)c1cccc(Cl)c1 (some centres unmarked)"
  test_target: "human β1 adrenergic receptor (Homo sapiens, UniProt P08588)"
  EC50 (µM): 0.38
- compound: "CC(C)CCOC(=O)C1(C(=O)OCCC(C)C)Oc2ccc(C[C@@H](C)NC[C@H](O)c3cccc(Cl)c3)cc2O1"
  test_target: "human β1 adrenergic receptor (Homo sapiens, UniProt P08588)"
  EC50 (µM): 5.4

* * *

target: human β2 adrenergic receptor (Homo sapiens, UniProt P07550); assay: cell-based; settings: 10 min; compounds tested at 10 nM, isoproterenol at 10 μM; CHO cells, 10 min at 37° C; read-out: β2: % of isoproterenol activity (increase in cAMP)
Sequence (P07550 whole entry): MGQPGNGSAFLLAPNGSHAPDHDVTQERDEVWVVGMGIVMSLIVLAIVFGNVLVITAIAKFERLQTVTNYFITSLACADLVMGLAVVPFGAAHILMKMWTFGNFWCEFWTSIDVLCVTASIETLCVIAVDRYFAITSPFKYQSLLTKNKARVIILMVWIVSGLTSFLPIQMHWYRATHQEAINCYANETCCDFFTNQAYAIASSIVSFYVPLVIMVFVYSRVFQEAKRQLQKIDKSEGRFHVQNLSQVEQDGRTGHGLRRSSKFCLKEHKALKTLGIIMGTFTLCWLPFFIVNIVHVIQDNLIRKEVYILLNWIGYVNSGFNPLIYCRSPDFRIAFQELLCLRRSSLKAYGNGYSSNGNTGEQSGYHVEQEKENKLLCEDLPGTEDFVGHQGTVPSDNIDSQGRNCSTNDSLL
Please mark satisfied if the recorded activation at 0.01 µM is equal to or greater than 1%, and not satisfied if it falls below.

- compound: "C[C@H](Cc1ccc2c(c1)OC(C(=O)OCC1CCCO1)(C(=O)OCC1CCCO1)O2)NC[C@H](O)c1cccc(Cl)c1 (stereo partly shown) [Example 91]"
  test_target: "human β2 adrenergic receptor (Homo sapiens, UniProt P07550)"
  assigned_category: "satisfied"
- compound: "CC(Cc1ccc2c(c1)OC(C(=O)OCC1CCCCC1)(C(=O)OCC1CCCCC1)O2)NCC(O)c1cccc(Cl)c1 (stereo not shown) [Example 34]"
  test_target: "human β2 adrenergic receptor (Homo sapiens, UniProt P07550)"
  assigned_category: "satisfied"
- compound: "CCCCCCCCCCOC(=O)C1(C(=O)OCCCCCCCCCC)Oc2ccc(CC(C)NCC(O)c3cccc(Cl)c3)cc2O1 (stereo not shown) [Example 19]"
  test_target: "human β2 adrenergic receptor (Homo sapiens, UniProt P07550)"
  assigned_category: "satisfied"
- compound: "C[C@H](Cc1ccc2c(c1)OC(C(=O)OCCCOCc1ccccc1)(C(=O)OCCCOCc1ccccc1)O2)NC[C@H](O)c1cccc(Cl)c1 [Example 104]"
  test_target: "human β2 adrenergic receptor (Homo sapiens, UniProt P07550)"
  assigned_category: "satisfied"
- compound: "CCCCCCCCCCCCOC(=O)C1(C(=O)OCCCCCCCCCCCC)Oc2ccc(CC(C)NCC(O)c3cccc(Cl)c3)cc2O1 (stereo not shown) [Example 20]"
  test_target: "human β2 adrenergic receptor (Homo sapiens, UniProt P07550)"
  assigned_category: "not satisfied"
- compound: "CC(=O)OCOC(=O)C1(C(=O)OCOC(C)=O)Oc2ccc(CC(C)NCC(O)c3cccc(Cl)c3)cc2O1 (stereo not shown) [Example 42]"
  test_target: "human β2 adrenergic receptor (Homo sapiens, UniProt P07550)"
  assigned_category: "not satisfied"
- compound: "CCC(C)(C)C(=O)OCOC(=O)C1(C(=O)OCOC(=O)C(C)(C)CC)Oc2ccc(CC(C)NCC(O)c3cccc(Cl)c3)cc2O1 (stereo not shown) [Example 58]"
  test_target: "human β2 adrenergic receptor (Homo sapiens, UniProt P07550)"
  assigned_category: "satisfied"
- compound: "CC(Cc1ccc2c(c1)OC(C(=O)OCCC1CCCCC1)(C(=O)OCCC1CCCCC1)O2)NCC(O)c1cccc(Cl)c1 (stereo not shown) [Example 36]"
  test_target: "human β2 adrenergic receptor (Homo sapiens, UniProt P07550)"
  assigned_category: "satisfied"
